# STUDY SYSTEM: Human norepinephrine transporter (NET) (Homo sapiens)
# Sequence (P23975 whole entry): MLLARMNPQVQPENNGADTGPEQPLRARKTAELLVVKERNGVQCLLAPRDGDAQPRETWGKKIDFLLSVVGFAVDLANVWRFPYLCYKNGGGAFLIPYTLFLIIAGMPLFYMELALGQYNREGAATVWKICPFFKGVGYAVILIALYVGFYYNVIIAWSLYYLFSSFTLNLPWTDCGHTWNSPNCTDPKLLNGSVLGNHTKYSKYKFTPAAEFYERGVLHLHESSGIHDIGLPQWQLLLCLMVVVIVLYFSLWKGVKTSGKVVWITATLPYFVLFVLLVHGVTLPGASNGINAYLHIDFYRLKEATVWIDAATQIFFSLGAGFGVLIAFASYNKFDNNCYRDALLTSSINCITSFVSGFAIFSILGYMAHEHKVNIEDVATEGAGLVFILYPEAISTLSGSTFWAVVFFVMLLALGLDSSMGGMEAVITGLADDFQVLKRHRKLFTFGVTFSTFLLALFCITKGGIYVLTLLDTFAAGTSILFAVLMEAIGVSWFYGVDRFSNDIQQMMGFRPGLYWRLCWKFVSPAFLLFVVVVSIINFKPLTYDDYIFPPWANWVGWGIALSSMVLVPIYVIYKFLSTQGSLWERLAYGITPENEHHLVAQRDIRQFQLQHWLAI
# PROCEDURE DETAILS: Binding assay to human norepinephrine transporter (NET), [3H]-Nisoxetin
# MEASUREMENT CONDITIONS: human NET enriched membranes, 5 nM [3H]-Nisoxetin; read-out: Ki (nM) NET Hum
Structures can show the parent of a compound that is named as a salt.
Entries and their Ki
PROPERTY LABEL: Ki

{"COMPOUND": "CNCCC(c1cccs1)N1CC(C)(C)c2ccc(C#N)cc21 (stereo not shown)", "REPORTED RESULT": "> 1000 nM"}
{"COMPOUND": "CNCC[C@H](c1cc(C)cs1)N1CCc2ncccc21", "REPORTED RESULT": "> 1000 nM"}
{"COMPOUND": "CCC1(CC)CN(C(CCNC)c2ccsc2)c2cccnc21 (racemic)", "REPORTED RESULT": "> 1000 nM"}
{"COMPOUND": "CNCC[C@@H](c1nccs1)N1CCc2ncccc21", "REPORTED RESULT": "> 1000 nM"}
{"COMPOUND": "CNCC[C@H](c1ccc(F)s1)N1CCc2ncccc21", "REPORTED RESULT": "500 to 1000 nM"}
{"COMPOUND": "CNCC[C@H](c1cccs1)N1CCc2ncccc21", "REPORTED RESULT": "100 to 500 nM"}
{"COMPOUND": "NCCC(c1cccs1)N1CCc2ncccc21 (stereo not shown)", "REPORTED RESULT": "> 1000 nM"}
{"COMPOUND": "CCc1cnc2c(c1)N([C@@H](CCNC)c1ccsc1)CC2", "REPORTED RESULT": "100 to 500 nM"}
{"COMPOUND": "CNCCC(c1ccsc1)N1CC(C)(C)c2nc(C#N)ccc21 (stereo not shown) [Example 104, Hydrochloride]", "REPORTED RESULT": "> 1000 nM"}
{"COMPOUND": "CNCC[C@@H](c1cccs1)N1CC(C)(C)c2ncc(Cl)cc21", "REPORTED RESULT": "> 1000 nM"}

* * *

# STUDY SYSTEM: Human α2δ-1 subunit of Cav2.2 calcium channel (Homo sapiens)
# Sequence (P54289 25-1103): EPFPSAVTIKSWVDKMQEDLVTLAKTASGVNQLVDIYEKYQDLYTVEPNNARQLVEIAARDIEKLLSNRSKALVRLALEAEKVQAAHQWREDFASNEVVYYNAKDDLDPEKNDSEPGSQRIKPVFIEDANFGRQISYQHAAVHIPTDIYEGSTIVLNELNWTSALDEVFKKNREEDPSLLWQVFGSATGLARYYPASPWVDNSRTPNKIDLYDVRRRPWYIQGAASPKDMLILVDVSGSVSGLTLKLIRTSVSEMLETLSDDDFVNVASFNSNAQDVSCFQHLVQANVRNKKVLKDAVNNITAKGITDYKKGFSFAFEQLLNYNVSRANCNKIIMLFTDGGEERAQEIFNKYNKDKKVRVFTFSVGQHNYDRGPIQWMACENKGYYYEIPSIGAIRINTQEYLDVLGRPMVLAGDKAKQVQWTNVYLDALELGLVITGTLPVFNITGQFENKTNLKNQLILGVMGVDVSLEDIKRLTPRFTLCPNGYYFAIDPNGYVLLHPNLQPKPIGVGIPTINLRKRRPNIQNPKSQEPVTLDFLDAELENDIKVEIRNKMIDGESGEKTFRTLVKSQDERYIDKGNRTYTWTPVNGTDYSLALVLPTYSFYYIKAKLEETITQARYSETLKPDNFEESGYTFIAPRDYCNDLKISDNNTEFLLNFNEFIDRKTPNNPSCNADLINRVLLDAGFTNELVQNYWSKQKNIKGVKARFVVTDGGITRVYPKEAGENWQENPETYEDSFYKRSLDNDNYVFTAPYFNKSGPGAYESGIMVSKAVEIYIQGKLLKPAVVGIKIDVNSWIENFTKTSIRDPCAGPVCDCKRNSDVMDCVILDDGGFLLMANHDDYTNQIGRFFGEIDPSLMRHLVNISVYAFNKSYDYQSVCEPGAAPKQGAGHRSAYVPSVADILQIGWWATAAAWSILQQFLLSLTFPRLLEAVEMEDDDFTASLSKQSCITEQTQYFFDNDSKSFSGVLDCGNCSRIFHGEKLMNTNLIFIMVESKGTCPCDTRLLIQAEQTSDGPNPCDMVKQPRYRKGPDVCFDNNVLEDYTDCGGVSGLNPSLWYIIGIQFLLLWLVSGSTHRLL
# PROCEDURE DETAILS: Binding assay to human α2δ-1 subunit of Cav2.2 calcium channel, [3H]-Gabapentin
# MEASUREMENT CONDITIONS: human α2δ-1 enriched membranes, 15 nM [3H]-Gabapentin; read-out: Ki (nM) alpha2delta Hum
Entries and their Ki

{"COMPOUND": "CNCC[C@H](c1ccsc1)N1CC(C)(C)c2ncc(F)cc21 [Example 87]", "Ki": "100 to 500 nM"}
{"COMPOUND": "CNCC[C@H](c1ccsc1)N1CCc2nc(C(C)C)ccc21 [Example 46]", "Ki": "500 to 3000 nM"}
{"COMPOUND": "CNCC[C@@H](c1ccsc1)N1CCc2nc(C)ccc21 [Example 63]", "Ki": "500 to 3000 nM"}
{"COMPOUND": "CNCCC(c1ccsc1)N1CC(C)(C)c2ncc(Cl)cc21 (racemic) [Example 80]", "Ki": "100 to 500 nM"}
{"COMPOUND": "CNCC[C@H](c1cc(C)cs1)N1CCc2ncccc21 [Example 56]", "Ki": "500 to 3000 nM"}

* * *

# STUDY SYSTEM: Human α2δ-1 subunit of Cav2.2 calcium channel (Homo sapiens)
# PROCEDURE DETAILS: Binding assay to human α2δ-1 subunit of Cav2.2 calcium channel, [3H]-Gabapentin
# MEASUREMENT CONDITIONS: human α2δ-1 enriched membranes, 15 nM [3H]-Gabapentin; read-out: Ki (nM) alpha2delta Hum
Entries and their Ki

{"MOLECULE": "CNCC[C@@H](c1ccsc1)N1CC(C)(C)c2nc(C)ccc21", "Ki": "100 to 500 nM"}
{"MOLECULE": "CNCCC(c1cccs1)N1CCc2c(OC)cccc21 (centres unmarked)", "Ki": "≥ 3000 nM"}
{"MOLECULE": "CNCC[C@@H](c1cccs1)N1CCc2ncc(C(C)C)cc21", "Ki": "≥ 3000 nM"}
{"MOLECULE": "CNCC[C@H](c1ccsc1)N1CCc2nc(C)ccc21", "Ki": "500 to 3000 nM"}
{"MOLECULE": "CNCC[C@H](c1cccs1)N1CC(C)(C)c2nc(OC)ccc21", "Ki": "100 to 500 nM"}
{"MOLECULE": "CNCC[C@H](c1cccs1)N1CC(C)(C)c2ncc(C#N)cc21", "Ki": "500 to 3000 nM"}
{"MOLECULE": "CNCC[C@H](c1ccsc1)N1CCc2ncc(C)cc21", "Ki": "100 to 500 nM"}
{"MOLECULE": "CNCC[C@H](c1cccc(F)c1)N1CCc2ncccc21", "Ki": "≥ 3000 nM"}
{"MOLECULE": "CNCC[C@H](c1cccs1)N1CCc2ncccc21", "Ki": "500 to 3000 nM"}
{"MOLECULE": "CNCC[C@@H](c1cccs1)N1CC(C)(C)c2ncc(F)cc21", "Ki": "500 to 3000 nM"}
{"MOLECULE": "CNCCC(c1cccs1)N1CC(C)(C)c2c(C#N)cccc21 (centres unmarked)", "Ki": "< 100 nM"}
{"MOLECULE": "CNCC[C@H](c1ccsc1)N1CC(C)(C)c2nc(C(F)(F)F)ccc21 (racemic) [Example 79]", "Ki": "100 to 500 nM"}
{"MOLECULE": "CNCC[C@@H](c1ccsc1)N1CC(C)(C)c2ncccc21", "Ki": "500 to 3000 nM"}
{"MOLECULE": "CNCC[C@@H](c1cccs1)N1c2ccccc2C[C@@H]1C (racemic)", "Ki": "≥ 3000 nM"}
{"MOLECULE": "CNCC[C@H](c1ccsc1)N1CCc2ncc(C3CC3)cc21", "Ki": "< 100 nM"}
{"MOLECULE": "CCc1cnc2c(c1)N([C@@H](CCNC)c1ccsc1)CC2", "Ki": "500 to 3000 nM"}
{"MOLECULE": "CNCCC(c1cccs1)N1CCc2c(C#N)cccc21 (centres unmarked)", "Ki": "100 to 500 nM"}
{"MOLECULE": "CNCCC(c1cccs1)N1CC(C)(C)c2ncccc21 (centres unmarked)", "Ki": "100 to 500 nM"}
{"MOLECULE": "CNCC[C@@H](c1ccsc1)N1CCc2ncc(C3CC3)cc21", "Ki": "500 to 3000 nM"}
{"MOLECULE": "CNCCC(c1cccs1)N1CC(C)(C)c2nc(C)ccc21 (centres unmarked)", "Ki": "< 100 nM"}

* * *

# STUDY SYSTEM: Human α2δ-1 subunit of Cav2.2 calcium channel (Homo sapiens)
# PROCEDURE DETAILS: Binding assay to human α2δ-1 subunit of Cav2.2 calcium channel, [3H]-Gabapentin
# MEASUREMENT CONDITIONS: human α2δ-1 enriched membranes, 15 nM [3H]-Gabapentin; read-out: Ki (nM) alpha2delta Hum
PROPERTY LABEL: Ki

{"MOLECULE": "CNCCC(c1ccccc1)N1CCc2ncccc21 (stereo not shown)", "STUDY SYSTEM": "Human α2δ-1 subunit of Cav2.2 calcium channel (Homo sapiens)", "REPORTED RESULT": "≥ 3000 nM"}
{"MOLECULE": "CNCC[C@H](c1cccs1)N1c2ccccc2C[C@@H]1C", "STUDY SYSTEM": "Human α2δ-1 subunit of Cav2.2 calcium channel (Homo sapiens)", "REPORTED RESULT": "≥ 3000 nM"}
{"MOLECULE": "CNCC[C@H](c1cccs1)N1CC(C)(C)c2ncc(F)cc21", "STUDY SYSTEM": "Human α2δ-1 subunit of Cav2.2 calcium channel (Homo sapiens)", "REPORTED RESULT": "< 100 nM"}
{"MOLECULE": "CNCC[C@H](c1cc(C)sc1C)N1CCc2ncccc21", "STUDY SYSTEM": "Human α2δ-1 subunit of Cav2.2 calcium channel (Homo sapiens)", "REPORTED RESULT": "≥ 3000 nM"}
{"MOLECULE": "CNCCC(c1cccs1)N1CCc2ncccc21 (stereo not shown)", "STUDY SYSTEM": "Human α2δ-1 subunit of Cav2.2 calcium channel (Homo sapiens)", "REPORTED RESULT": "500 to 3000 nM"}
{"MOLECULE": "CNCC[C@@H](c1ccc(Cl)s1)N1CCc2ncccc21", "STUDY SYSTEM": "Human α2δ-1 subunit of Cav2.2 calcium channel (Homo sapiens)", "REPORTED RESULT": "100 to 500 nM"}
{"MOLECULE": "CCNCC[C@H](c1ccsc1)N1CCc2ncc(F)cc21", "STUDY SYSTEM": "Human α2δ-1 subunit of Cav2.2 calcium channel (Homo sapiens)", "REPORTED RESULT": "500 to 3000 nM"}
{"MOLECULE": "CNCC[C@@H](c1cccs1)N1CC(C)(C)c2ncc(Cl)cc21", "STUDY SYSTEM": "Human α2δ-1 subunit of Cav2.2 calcium channel (Homo sapiens)", "REPORTED RESULT": "≥ 3000 nM"}
{"MOLECULE": "CNCCC(c1cccs1)N1CC(C)(C)c2nc(C(F)(F)F)ccc21 (stereo not shown)", "STUDY SYSTEM": "Human α2δ-1 subunit of Cav2.2 calcium channel (Homo sapiens)", "REPORTED RESULT": "100 to 500 nM"}
{"MOLECULE": "CNCCC(c1ccsc1)N1CC(C)(C)c2ncccc21 (stereo not shown)", "STUDY SYSTEM": "Human α2δ-1 subunit of Cav2.2 calcium channel (Homo sapiens)", "REPORTED RESULT": "500 to 3000 nM"}
